Reference source: patent US20170342144A1

Target: T1, human TGFβ1 (human, UniProt P01137 279-390)
T1 construct: also called TGFβ1 homodimer
T1 sequence (P01137 279-390 limits assumed): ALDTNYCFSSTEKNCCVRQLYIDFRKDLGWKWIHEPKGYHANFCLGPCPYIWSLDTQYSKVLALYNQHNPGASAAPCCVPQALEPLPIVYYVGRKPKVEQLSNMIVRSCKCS
Assay: Biacore off-rate vs wt GC1008, 50 nM
outcome_measure: kd var/kd wt
Format: numeric value only, no unit, no commentary.

Request: Please look up its kd var/kd wt: D56Q (antibody, V domains shown, GC1008 IgG4 variant) VH: QVQLVQSGAEVKKPGSSVKVSCKASGYTFSSNVISWVRQAPGQGLEWMGGVIPIVQIANYAQRFKGRVTITADESTSTTYMELSSLRSEDTAVYYCASTLGLVLDAMDYWGQGTLVTVSS VL: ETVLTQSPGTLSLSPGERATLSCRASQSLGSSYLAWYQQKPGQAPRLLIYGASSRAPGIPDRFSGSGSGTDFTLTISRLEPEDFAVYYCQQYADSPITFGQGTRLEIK
Result: 1.1

Request: Please look up its kd var/kd wt: N32W (antibody, V domains shown, GC1008 IgG4 variant) VH: QVQLVQSGAEVKKPGSSVKVSCKASGYTFSSWVISWVRQAPGQGLEWMGGVIPIVDIANYAQRFKGRVTITADESTSTTYMELSSLRSEDTAVYYCASTLGLVLDAMDYWGQGTLVTVSS VL: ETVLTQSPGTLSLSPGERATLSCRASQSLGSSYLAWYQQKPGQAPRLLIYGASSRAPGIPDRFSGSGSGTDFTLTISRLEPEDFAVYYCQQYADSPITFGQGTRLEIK
Result: 1.9

Continue with the next binder.
Request: Please look up its kd var/kd wt: Y27D (antibody, V domains shown, GC1008 IgG4 variant) VH: QVQLVQSGAEVKKPGSSVKVSCKASGDTFSSNVISWVRQAPGQGLEWMGGVIPIVDIANYAQRFKGRVTITADESTSTTYMELSSLRSEDTAVYYCASTLGLVLDAMDYWGQGTLVTVSS VL: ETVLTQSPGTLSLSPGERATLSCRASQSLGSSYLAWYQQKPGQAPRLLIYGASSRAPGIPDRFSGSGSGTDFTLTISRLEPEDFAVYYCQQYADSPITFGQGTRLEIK
Result: 1.2
